- TARGET_DESC: UniProtKB Q9UBN7
- Sequence (Q9UBN7 whole entry): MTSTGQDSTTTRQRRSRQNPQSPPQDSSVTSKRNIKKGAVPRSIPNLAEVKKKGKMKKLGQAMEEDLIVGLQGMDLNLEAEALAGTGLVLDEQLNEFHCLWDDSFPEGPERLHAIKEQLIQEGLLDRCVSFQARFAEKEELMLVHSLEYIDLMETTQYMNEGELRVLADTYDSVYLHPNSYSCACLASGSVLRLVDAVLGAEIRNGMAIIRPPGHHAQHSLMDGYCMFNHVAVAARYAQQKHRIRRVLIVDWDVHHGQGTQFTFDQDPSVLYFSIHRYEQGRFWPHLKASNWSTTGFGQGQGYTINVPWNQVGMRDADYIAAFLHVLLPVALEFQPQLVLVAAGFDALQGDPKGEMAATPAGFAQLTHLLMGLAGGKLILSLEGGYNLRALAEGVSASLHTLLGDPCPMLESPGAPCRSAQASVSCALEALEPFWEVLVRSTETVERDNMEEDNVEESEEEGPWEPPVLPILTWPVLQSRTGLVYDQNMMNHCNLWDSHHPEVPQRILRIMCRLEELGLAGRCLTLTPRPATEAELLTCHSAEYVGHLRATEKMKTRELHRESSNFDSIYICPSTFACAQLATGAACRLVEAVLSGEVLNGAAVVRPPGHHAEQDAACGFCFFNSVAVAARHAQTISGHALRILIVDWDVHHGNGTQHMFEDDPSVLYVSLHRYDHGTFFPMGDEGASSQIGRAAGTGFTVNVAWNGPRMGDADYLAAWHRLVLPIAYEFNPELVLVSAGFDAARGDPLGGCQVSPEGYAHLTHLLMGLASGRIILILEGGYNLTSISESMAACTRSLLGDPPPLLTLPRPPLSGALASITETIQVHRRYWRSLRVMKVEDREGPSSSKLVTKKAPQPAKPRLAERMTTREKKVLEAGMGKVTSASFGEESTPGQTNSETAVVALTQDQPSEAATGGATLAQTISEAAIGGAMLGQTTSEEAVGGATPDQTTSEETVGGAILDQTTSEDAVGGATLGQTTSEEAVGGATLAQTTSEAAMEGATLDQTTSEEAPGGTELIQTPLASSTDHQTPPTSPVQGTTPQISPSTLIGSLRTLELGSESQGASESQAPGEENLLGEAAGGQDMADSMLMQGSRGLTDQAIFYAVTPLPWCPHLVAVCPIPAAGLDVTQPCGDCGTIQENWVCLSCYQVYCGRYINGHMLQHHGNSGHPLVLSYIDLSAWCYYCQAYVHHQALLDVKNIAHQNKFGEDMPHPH
- EXPERIMENT_DESCRIPTION: Inhibition of recombinant human HDAC6 using RHK-K(Ac)-AMC as substrate by fluorescence based assay
pIC50: −log10 of the molar value.
PARAMETER_MEASURED: pIC50

SMILES_TEXT	TARGET_DESC	OBSERVED_RESULT
CC(C)c1cc(C(=O)N2Cc3ccc(NCc4ccc(C(=O)NO)cc4)cc3C2)c(O)cc1O	UniProtKB Q9UBN7	7.48
CC(C)c1cc(C(=O)N2Cc3ccc(NC(=O)CCCCCC(=O)NO)cc3C2)c(O)cc1O	UniProtKB Q9UBN7	8.03
CC(C)c1cc(C(=O)N2Cc3ccc(NC(=O)CCCC(=O)NO)cc3C2)c(O)cc1O	UniProtKB Q9UBN7	7.16

A = CC(C)c1cc(C(=O)N2Cc3ccc(NC(=O)CCCCCCC(=O)NO)cc3C2)c(O)cc1O
B = CC(C)c1cc(C(=O)N2Cc3ccc(NC(=O)CCCCC(=O)NO)cc3C2)c(O)cc1O
input: Which entry shows the lesser value of pIC50 here, A or B ? // output: label of the selected item
output: B

* * *

- TARGET_DESC: Histone deacetylase
- Type: tissue-based, Homo sapiens
- STATED_CONDITIONS: hela
PARAMETER_MEASURED: IC50 (nM)

SMILES_TEXT	MEASURE_UNIT	IC50
CC(C)c1cc(C(=O)N2Cc3ccc(NC(=O)CCCCCC(=O)NO)cc3C2)c(O)cc1O	nM	521.4
CC(C)c1cc(C(=O)N2Cc3ccc(NC(=O)CCCCCCCCC(=O)NO)cc3C2)c(O)cc1O	nM	388.8

I = CC(C)c1cc(C(=O)N2Cc3ccc(NC(=O)CCCCCCCC(=O)NO)cc3C2)c(O)cc1O
II = CC(C)c1cc(C(=O)N2Cc3ccc(NC(=O)CCCCCCC(=O)NO)cc3C2)c(O)cc1O
input: // returns I or II , whichever has the lower IC50 Answer by quoting the chosen item's label.
output: I
(I: 198.9 nM, II: 1683 nM)

* * *

- Species on record: Homo sapiens
- EXPERIMENT_DESCRIPTION: Selectivity index, ratio of IC50 for recombinant human HDAC8 to IC50 for recombinant human HDAC6
PARAMETER_MEASURED: Ratio IC50

SMILES_TEXT	Ratio IC50
CC(C)c1cc(C(=O)N2Cc3ccc(NC(=O)CCCCCCC(=O)NO)cc3C2)c(O)cc1O	683

1 = CC(C)c1cc(C(=O)N2Cc3ccc(NC(=O)CCCCCCCCC(=O)NO)cc3C2)c(O)cc1O
2 = CC(C)c1cc(C(=O)N2Cc3ccc(NC(=O)CCCCC(=O)NO)cc3C2)c(O)cc1O
3 = CC(C)c1cc(C(=O)N2Cc3ccc(/C=C/C(=O)NO)cc3C2)c(O)cc1O
4 = CC(C)c1cc(C(=O)N2Cc3ccc(NCc4ccc(C(=O)NO)cc4)cc3C2)c(O)cc1O
5 = CC(C)c1cc(C(=O)N2Cc3ccc(NC(=O)CCCCCC(=O)NO)cc3C2)c(O)cc1O
input: Please give the order of these molecules when sorted by Ratio IC50, largest value leading. Reply: labels, ordered per the request.
output: 1, 5, 2, 4, 3

* * *

- System: NCI-H1975
- EXPERIMENT_DESCRIPTION: cells
- Type: functional
- STATED_CONDITIONS: Homo sapiens, time 48 hrs
PARAMETER_MEASURED: GI50 (µM)

Some molecules with recorded GI50:
SMILES_TEXT	TARGET_DESC	MEASURE_UNIT	GI50
CC(C)c1cc(C(=O)N2Cc3ccc(NC(=O)CCCCCC(=O)NO)cc3C2)c(O)cc1O	NCI-H1975	µM	0.68
CC(C)c1cc(C(=O)N2Cc3ccc(NC(=O)CCCCCCCCC(=O)NO)cc3C2)c(O)cc1O	NCI-H1975	µM	0.52
CC(C)c1cc(C(=O)N2Cc3ccc(NC(=O)CCCCCCCC(=O)NO)cc3C2)c(O)cc1O	NCI-H1975	µM	1.07
CC(C)c1cc(C(=O)N2Cc3ccc(/C=C/C(=O)NO)cc3C2)c(O)cc1O	NCI-H1975	µM	32
COc1c(C)cnc(Cn2cnc3c(Cl)nc(N)nc32)c1C	NCI-H1975	µM	0.2

P = CC(C)c1cc(C(=O)N2Cc3ccc(NC(=O)CCC(=O)NO)cc3C2)c(O)cc1O
Q = CC(C)c1cc(C(=O)N2Cc3ccc(NC(=O)CCCCCCC(=O)NO)cc3C2)c(O)cc1O
R = CC(C)c1cc(C(=O)N2Cc3ccc(NCc4ccc(C(=O)NO)cc4)cc3C2)c(O)cc1O
S = CC(C)c1cc(C(=O)N2Cc3ccc(NC(=O)CCCCC(=O)NO)cc3C2)c(O)cc1O
input: # sort list by recorded GI50, greatest to least List the labels, following the order given in the request.
output: Q, P, S, R
(Q: 434 µM, P: 39 µM, S: 1.64 µM, R: 0.13 µM)
